test system: NCI-H23; test: NCI tumour cell line growth inhibition, 48 h
Activity calls are given as the source filed them. Cut-off read from the data, not from the text of the source: active = GI50 up to about 1.1 µM and inactive = higher.
quantity_name: GI50

| compound | experimental_value |
| --- | --- |
| O=[N+]([O-])/C(C(Cl)=C(Cl)Cl)=C1/OCCS1 | 23.4 µM (inactive) |
| OC1(C(Sc2cc(C(F)(F)F)cc(C(F)(F)F)c2)Sc2cc(C(F)(F)F)cc(C(F)(F)F)c2)C=CCCC1 (stereo unspecified) | 2.58 µM (inactive) |
| Cn1cnc([N+](=O)[O-])c1Sc1nncc2[nH]cnc12 | > 100 µM (inactive) |
| CC(=O)O[C@H]1C(=O)[C@@]2(C)[C@H]([C@H](OC(=O)C3CCCCC3)[C@]3(O)C[C@H](OC(=O)[C@H](O)[C@@H](NC(=O)C4CCCCC4)C4CCCCC4)C(C)=C1C3(C)C)[C@]1(OC(C)=O)CO[C@@H]1C[C@@H]2O | < 0.0132 µM (active) |
| CC(=O)NC1=C(NCc2ccc(Cl)cc2)C(=O)c2ccccc2C1=O | 6.76 µM (inactive) |
| CC(=O)Nc1ccc(C(=O)N[C@@H]2C(=O)N3[C@@H]2SC(C)(C)[C@@H]3C(=O)O)cn1 | > 100 µM (inactive) |
| CCOC(=O)C1=C(C)C2C3C(=O)NC(=O)C3C1(C)C1C(=O)NC(=O)C21 (stereo unspecified) | > 100 µM (inactive) |
| COc1cc2ccc(CC#N)cc2cc1OC | > 100 µM (inactive) |
| CC[C@H](C)[C@H]1NC(=O)C(C(C)=O)=C1O | > 100 µM (inactive) |
| CS/C(C#N)=C(\C#N)SC | 5.61 µM (inactive) |
| O=S(=O)(Cc1ccccc1)c1nnc(S(=O)(=O)c2ccc(Cl)cc2)s1 | 23.3 µM (inactive) |

* * *

tested on: CCRF-CEM; experiment: NCI tumour cell line growth inhibition, 48 h
Activity calls are given as the source filed them. Rule as the data show it: active = GI50 up to about 1.1 µM and inactive = higher.
Below, each entry is listed with its recorded GI50.
quantity_name: GI50

| compound | experimental_target | experimental_value |
| --- | --- | --- |
| CN(NC(=O)c1cccs1)C1=NCCCCN1 | CCRF-CEM | > 100 µM (inactive) |
| CN(C)CC1CC/C(=C\c2ccc3c(c2)OCO3)C1=O (stereo not given) | CCRF-CEM | 2.79 µM (inactive) |
| Nc1ccc(-c2nc3cc(F)ccc3s2)cc1I | CCRF-CEM | > 100 µM (inactive) |
| CO/N=C1\CC(NC(=O)C(F)(F)F)c2ccsc21 (stereo not given) | CCRF-CEM | > 100 µM (inactive) |
| CC1NC(=O)C2Cc3ccc(O)c(c3)Oc3ccc(cc3)C(O)C(C(=O)N2C)N(C)C(=O)C(C)NC(=O)C(Cc2ccc(O)cc2)N(C)C(=O)C(C)NC1=O (stereo not given) | CCRF-CEM | 9.71 µM (inactive) |
| Nc1nnc(NC(=O)C2=NS(=O)(=O)c3cc(S(N)(=O)=O)c(Cl)cc3N2)[nH]1 | CCRF-CEM | > 100 µM (inactive) |
| COC(=O)C(=O)C(C(=O)C(=O)Nc1cc(Cl)c(Cl)cc1Cl)c1nc2ccc([N+](=O)[O-])cc2nc1O (stereo not given) | CCRF-CEM | > 100 µM (inactive) |
| C=CCNC(=S)N/N=C1\C(=O)N(CN2CCOCC2)c2ccc([N+](=O)[O-])cc21 | CCRF-CEM | 2.7 µM (inactive) |
| Cc1ccc(S(=O)(=O)N/N=C/C(Br)=C(/Br)C(=O)O)cc1 | CCRF-CEM | 1.42 µM (inactive) |
| Nc1nc(Cl)cc(NCCCCCNc2cc(Cl)nc(N)n2)n1 | CCRF-CEM | 54.1 µM (inactive) |
